Below is a list of entries, each paired with its recorded pIC50 value.
target: UniProt P14842; experiment: in-vitro affinity to 5-HT2A receptors, displacement of [3H]ketanserine (Example A1); type: binding; conditions: read-out: HT2A IC50
Sequence (P14842 whole entry): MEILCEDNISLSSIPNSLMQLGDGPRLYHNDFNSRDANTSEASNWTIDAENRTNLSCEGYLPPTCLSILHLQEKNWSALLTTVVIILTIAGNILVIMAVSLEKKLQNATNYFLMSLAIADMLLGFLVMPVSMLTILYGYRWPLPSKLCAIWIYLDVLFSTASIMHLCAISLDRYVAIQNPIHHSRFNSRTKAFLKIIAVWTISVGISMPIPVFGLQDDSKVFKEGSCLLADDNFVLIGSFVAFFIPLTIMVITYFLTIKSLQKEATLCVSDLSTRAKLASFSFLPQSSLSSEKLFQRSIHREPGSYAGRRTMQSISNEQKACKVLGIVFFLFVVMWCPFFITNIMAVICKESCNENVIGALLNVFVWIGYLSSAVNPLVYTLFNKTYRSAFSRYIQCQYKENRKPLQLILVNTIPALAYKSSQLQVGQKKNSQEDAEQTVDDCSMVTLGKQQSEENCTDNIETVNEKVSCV
Friendly reminder that pIC50 comes from taking -log10 of the concentration in mol/L.

As a guide, the following entries are already answered.
# cpd smiles, target system, observed result
rows = [
    ("CN(CCO)Cc1cnn(-c2ccc(-c3ccccc3)cc2)c1-c1ccccc1F", "UniProt P14842", 7.80),
    ("Fc1ccccc1-c1c(CN2CCC(Cc3cccnc3)CC2)cnn1-c1ccc(-c2ccccc2)cc1", "UniProt P14842", 7.18),
    ("O=C(CNCc1cnn(-c2ccc(-c3ccccc3)cc2)c1-c1ccccc1F)Nc1ccc([N+](=O)[O-])cc1", "UniProt P14842", 7.00),
]

In the following, a different molecule is considered.
Entry Fc1ccccc1-c1c(CNCc2cccnc2)cnn1-c1ccc(-c2ccccc2)cc1 ; assay system UniProt P14842; pIC50 recorded at 6.74
